tested.on: NMDA-receptor subtype 2B (Rattus norvegicus, UniProt P35439+Q00960)
Construct: Membranes were prepared by homogenization of the whole brain minus cerebellum and medulla oblongata
Sequence (Q00960 27-1482, other chains not shown): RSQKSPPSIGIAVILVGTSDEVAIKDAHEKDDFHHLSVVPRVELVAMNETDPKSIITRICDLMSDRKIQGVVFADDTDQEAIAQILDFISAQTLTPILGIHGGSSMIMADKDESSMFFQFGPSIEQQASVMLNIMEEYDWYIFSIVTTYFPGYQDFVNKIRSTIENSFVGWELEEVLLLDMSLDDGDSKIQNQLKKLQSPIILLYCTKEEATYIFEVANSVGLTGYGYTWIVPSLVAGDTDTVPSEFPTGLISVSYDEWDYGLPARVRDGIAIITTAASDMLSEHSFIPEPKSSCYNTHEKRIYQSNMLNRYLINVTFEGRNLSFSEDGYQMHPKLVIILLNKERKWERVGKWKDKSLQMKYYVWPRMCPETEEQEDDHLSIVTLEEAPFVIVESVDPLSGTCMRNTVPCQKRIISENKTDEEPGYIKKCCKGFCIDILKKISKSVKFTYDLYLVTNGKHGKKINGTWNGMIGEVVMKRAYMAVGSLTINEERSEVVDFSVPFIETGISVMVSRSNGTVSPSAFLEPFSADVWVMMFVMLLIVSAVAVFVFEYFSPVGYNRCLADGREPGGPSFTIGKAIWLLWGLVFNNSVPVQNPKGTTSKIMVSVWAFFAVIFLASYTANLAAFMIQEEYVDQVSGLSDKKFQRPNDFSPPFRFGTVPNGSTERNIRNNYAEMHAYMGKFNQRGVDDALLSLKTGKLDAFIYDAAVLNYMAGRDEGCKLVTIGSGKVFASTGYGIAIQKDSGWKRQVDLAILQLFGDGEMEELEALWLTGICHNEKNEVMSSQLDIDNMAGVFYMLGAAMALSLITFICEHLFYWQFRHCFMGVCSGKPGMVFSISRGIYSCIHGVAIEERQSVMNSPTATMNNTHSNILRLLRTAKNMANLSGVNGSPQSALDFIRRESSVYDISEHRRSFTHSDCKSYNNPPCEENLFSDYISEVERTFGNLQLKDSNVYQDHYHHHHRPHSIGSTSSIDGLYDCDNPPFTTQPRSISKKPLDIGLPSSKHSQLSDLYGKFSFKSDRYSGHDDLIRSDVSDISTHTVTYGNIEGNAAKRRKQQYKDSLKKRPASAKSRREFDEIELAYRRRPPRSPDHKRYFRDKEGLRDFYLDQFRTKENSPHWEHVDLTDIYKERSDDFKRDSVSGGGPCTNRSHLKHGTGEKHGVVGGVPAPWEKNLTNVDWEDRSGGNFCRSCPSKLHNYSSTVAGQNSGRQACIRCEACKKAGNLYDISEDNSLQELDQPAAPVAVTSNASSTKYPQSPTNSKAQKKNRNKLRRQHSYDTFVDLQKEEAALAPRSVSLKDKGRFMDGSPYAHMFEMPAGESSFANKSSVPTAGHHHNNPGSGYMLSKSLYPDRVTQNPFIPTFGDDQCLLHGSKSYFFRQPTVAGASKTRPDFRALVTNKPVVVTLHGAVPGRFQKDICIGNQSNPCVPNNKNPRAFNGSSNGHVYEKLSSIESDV
run.description: 3H-Ro 25-6981 binding (displacement) on rat brain membranes
study.conditions: displacement of 5 nM 3H-Ro 25-6981, rat whole brain membranes (minus cerebellum and medulla oblongata), 2 hours at 4° C.
Define the label as class 1 when IC50 is strictly less than 20 nM and as class 0 in all remaining cases.

compound="CCc1nccn1Cc1cn(-c2ccc3c(c2)CCC3)cn1.Cl.Cl [Example 17]" class_label="class 1"
compound="Cc1ccc(-n2cnc(Cn3ccnc3C)c2)cc1Cl.Cl.Cl [Example 87]" class_label="class 1"
compound="Cc1nccn1Cc1cncc(-c2ccc(F)c(Cl)c2)c1 [Example 140]" class_label="class 0"
compound="COc1cc(-n2cnc(Cn3ccnc3C)c2)cc(C(F)(F)F)c1.Cl.Cl [Example 180]" class_label="class 0"
compound="Cc1cc(-c2c[nH]c(Cn3ccnc3C)n2)ccc1F [Example 119]" class_label="class 0"
